Cited source: PubChem BioAssay AID485272

# inhibition per record follows
# SYSTEM: Protein-arginine deiminase type-4 (Homo sapiens) (UniProt Q9UM07)
# Sequence (Q9UM07 whole entry, looked up): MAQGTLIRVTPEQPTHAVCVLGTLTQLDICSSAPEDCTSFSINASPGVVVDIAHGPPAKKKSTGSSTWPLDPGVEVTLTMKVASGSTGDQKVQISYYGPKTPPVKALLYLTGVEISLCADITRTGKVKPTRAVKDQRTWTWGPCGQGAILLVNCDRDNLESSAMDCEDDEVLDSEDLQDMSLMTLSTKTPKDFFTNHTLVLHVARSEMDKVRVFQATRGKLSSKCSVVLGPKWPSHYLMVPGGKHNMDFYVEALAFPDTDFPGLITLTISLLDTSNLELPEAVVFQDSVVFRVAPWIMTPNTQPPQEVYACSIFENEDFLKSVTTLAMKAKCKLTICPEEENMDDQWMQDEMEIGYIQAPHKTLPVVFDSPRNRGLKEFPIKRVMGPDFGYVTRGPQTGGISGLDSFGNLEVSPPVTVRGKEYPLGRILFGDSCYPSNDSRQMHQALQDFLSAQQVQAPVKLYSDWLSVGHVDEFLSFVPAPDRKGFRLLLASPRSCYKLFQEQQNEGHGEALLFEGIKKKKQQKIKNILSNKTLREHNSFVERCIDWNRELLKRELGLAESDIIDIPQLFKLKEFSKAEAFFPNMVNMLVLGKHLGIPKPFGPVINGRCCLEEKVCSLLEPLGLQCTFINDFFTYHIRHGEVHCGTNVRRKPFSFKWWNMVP
# PROTOCOL NOTES: protein arginine deiminase 4 enzyme blockade – biochemical, fluorescence polarization, 1536-well format, primary screen (AID 485272);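 also: 0% = PAD4 with RCA probe and DMSO and 100% = probe without PAD4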
# EXPERIMENTAL PARAMETERS: recombinant PAD4, RCA probe fluorescence polarization; at 6.36 µM; hits give high values
In all, about 330,000 compounds went through this assay and about 1,300 (0.39%) were called active. The sample as a whole holds a higher share of actives than the screen did.
Give the value in % but do not write % after it.

MOLECULE	UNIT SYMBOL	inhibition
C=C1CCC(N(O)c2cc(C)on2)C(=C)CCC2C1CC2(C)C (configuration not stated)	%	-6.2
O=S(=O)(Cc1cc(Cl)nc(-c2cccnc2)n1)c1ccccc1	%	-1.95

Value lookup for inhibition; key = CC(C)CNC(=O)CC(NCC(C)C)C(=O)O (configuration not stated)
-2.65

Value lookup for inhibition; key = O=C1CN(C(=O)CN2C(=O)NC3(CCCCC3)C2=O)c2ccccc2N1
1.47

Value lookup for inhibition; key = O=C(CN1CCCCCC1)Nc1ccc(Br)cc1[N+](=O)[O-]
0.42

Value lookup for inhibition; key = CC(C)Cc1nc(Nc2ccc(S(=O)(=O)N3CCCC3)cc2)c2nnn(Cc3ccccc3)c2n1
-3.06

Value lookup for inhibition; key = c1ccc2c(c1)OCCOCCOCCO2
0.83

---

# SYSTEM: Protein-arginine deiminase type-4 (Homo sapiens) (UniProt Q9UM07)
# PROTOCOL NOTES: protein arginine deiminase 4 enzyme blockade – biochemical, fluorescence polarization, 1536-well format, primary screen (AID 485272);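 also: 0% = PAD4 with RCA probe and DMSO and 100% = probe without PAD4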
# EXPERIMENTAL PARAMETERS: recombinant PAD4, RCA probe fluorescence polarization; at 6.36 µM
In all, about 330,000 compounds went through this assay and about 1,300 (0.39%) were called active.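 Rule for the calls: active = percent inhibition above a cutoff equal to the mean of all tested compounds plus 3 SD (cut at about 15% in these data); inactive = the rest.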 For the sample, actives were picked, then their nearest neighbours and some compounds at random.
Hi! Could you answer with just one of these? 1.0 (active), 0.0 (inactive)

Examples with answers:
MOLECULE	SYSTEM	CATEGORY
Oc1ccc(N=Cc2c(O)ccc3ccccc23)cc1	Protein-arginine deiminase type-4 (Homo sapiens) (UniProt Q9UM07)	1.0
COC(=O)c1ccc(C)c(NC(=O)Cn2c(C)csc2=O)c1	Protein-arginine deiminase type-4 (Homo sapiens) (UniProt Q9UM07)	0.0
CC(=O)NS(=O)(=O)c1ccc(N/C(N)=N/c2nc(C)cc(C)n2)cc1	Protein-arginine deiminase type-4 (Homo sapiens) (UniProt Q9UM07)	0.0
Cc1ccc(C)c(S(=O)(=O)N2CCCOC2CNC(=O)C(=O)NC2CCCCC2)c1 (stereo not drawn)	Protein-arginine deiminase type-4 (Homo sapiens) (UniProt Q9UM07)	0.0

Hi, do you know how Cc1ccc2c(c1)N(C(=O)CCC(=O)NCc1cccnc1)CCO2 came out in this test?
0.0

Hi, do you know how Cc1ccc2[nH]c(C(=O)O)c(NC(=O)c3ccccc3[N+](=O)[O-])c2c1 came out in this test?
0.0

Hi, do you know how CCOC(=O)c1c(C)[nH]c(C2=NNC(=NC(C)COC)SC2)c1C (stereo not drawn) came out in this test?
0.0

Hi, do you know how Cc1cc(C(=O)CSc2nc(N)cc(=O)[nH]2)c(C)n1-c1cccc(F)c1 came out in this test?
0.0

Hi, do you know how CCCc1cc(=O)[nH]c(SCC(=O)c2cc(C)n(CCC)c2C)n1 came out in this test?
0.0

Hi, do you know how COc1ccc(C2(O)C(=O)Nc3ccccc32)cc1 (stereo not drawn) came out in this test?
0.0

Hi, do you know how CC(=O)n1c(C=Nc2ccccc2)c(O)c2ccccc21 came out in this test?
0.0

Hi, do you know how CCn1c(SCC(=O)Nc2sc(C)c(C)c2C#N)nnc1C1CC1 came out in this test?
0.0

Hi, do you know how CCCCNC(=O)CCNC(=O)c1ccc(C(C)(C)C)cc1 came out in this test?
0.0

Hi, do you know how Cc1c(-c2nn(C)c(=O)c3ccccc23)oc2ccc(F)cc2c1=O came out in this test?
1.0

Hi, do you know how O=C(CNC1CCCCC1)NCC1(c2ccccc2)CCCC1 came out in this test?
0.0

---

# SYSTEM: Protein-arginine deiminase type-4 (Homo sapiens)
# PROTOCOL NOTES: protein arginine deiminase 4 enzyme blockade – biochemical, fluorescence polarization, 1536-well format, primary screen (AID 485272);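 also: 0% = PAD4 with RCA probe and DMSO and 100% = probe without PAD4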
# EXPERIMENTAL PARAMETERS: recombinant PAD4, RCA probe fluorescence polarization; at 6.36 µM; hits give high values
The whole screen tested about 330,000 compounds, of which about 1,300 (0.39%) were called active. What follows is part of a selection rich in actives, with near analogues and random picks from the rest.
# inhibition per record follows
Give the value in % but do not write % after it.

Worked cases, inhibition given:
COMPOUND	UNIT SYMBOL	inhibition
Cc1nn(C)cc1C(=O)c1ccccc1	%	-3.44
CCOC(=O)c1cc(NC(=O)SCC(=O)O)c(C)nc1C	%	2.33
Cc1ccc2c(c1)-c1c(ssc1=S)C(C)(C)N2C(=O)CN1C(=O)c2ccccc2C1=O	%	0.29
CC(=O)Nc1ccccc1Sc1ccc2c3c(cccc13)C(=O)N(c1ccc(C)cc1)C2=O	%	1.13
C#CCOCCOCCOCCNc1nc(N2CCN(C(=O)C([C@@H](C)O)n3cc([C@@H](N)CCCCN)nn3)CC2)nc(N2CCN(C(=O)[C@H](CCCCN)n3cc(CN)nn3)CC2)n1 (some centres not stated)	%	4.78
Nc1scc[n+]1Cc1cccc2cccnc12	%	-3.55

Protein-arginine deiminase type-4 (Homo sapiens) / inhibition / CC(=O)Nc1ccc(N2C(=O)CCC2=O)cc1C : value?
1.44

Protein-arginine deiminase type-4 (Homo sapiens) / inhibition / CCCCCNC(=O)Cc1ccc(OC)cc1 : value?
1.91

Protein-arginine deiminase type-4 (Homo sapiens) / inhibition / Cc1cc2c(cc1C)N(C(=O)CN1C(=O)c3ccccc3C1=O)C(C)(C)c1ssc(=S)c1-2 : value?
44.1

Protein-arginine deiminase type-4 (Homo sapiens) / inhibition / CCOC(=O)C1CCN(C(=O)CC2C(=O)N(Cc3ccccc3)C(C)c3nc4ccccc4n32)CC1 (configuration not stated) : value?
-2.42

Protein-arginine deiminase type-4 (Homo sapiens) / inhibition / CC(=O)C(C)n1cnc2scc(-c3ccc(C)cc3)c2c1=O (configuration not stated) : value?
-5.08

Protein-arginine deiminase type-4 (Homo sapiens) / inhibition / Cc1ccc(/C=C2\CCn3c2nc2cc(C(=O)O)ccc2c3=O)c(C)c1 : value?
-1.1

---

# inhibition per record follows
# SYSTEM: Protein-arginine deiminase type-4 (Homo sapiens) (UniProt Q9UM07)
# PROTOCOL NOTES: protein arginine deiminase 4 enzyme blockade – biochemical, fluorescence polarization, 1536-well format, primary screen (AID 485272);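 also: 0% = PAD4 with RCA probe and DMSO and 100% = probe without PAD4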
# EXPERIMENTAL PARAMETERS: recombinant PAD4, RCA probe fluorescence polarization; at 6.36 µM; hits give high values
Screen size: about 330,000 compounds; about 1,300 (0.39%) were called active. Many of the other results were omitted from the sample, so actives are more common in it than they were.
Give the value in % but do not write % after it.

Worked cases, inhibition given:
COMPOUND	inhibition (%)
CN(C)N1C(N)=C(C#N)C(c2ccc(Br)cc2)C2=C1CCCC2=O (configuration not stated)	-7.04
CC1(OC(=O)C2CCCC2)C(=O)C=C2C=C(c3ccc(C#N)cc3)OC=C2C1=O (configuration not stated)	4.94
N#CCCN(C(=O)COC(=O)C1CCN(c2ccc(C(F)(F)F)cn2)CC1)c1ccc(F)cc1	-2.71
COc1ccc(OC)c(CNC(=O)C2CCCN(c3nc4ccccc4o3)C2)c1 (configuration not stated)	0.33
COc1cccc(NC(=O)C2c3cc(OC)c(OC)cc3C(=O)N(C)C2c2cccnc2)c1 (configuration not stated)	69.3
O=C(NCCSCc1ccccc1)c1ccc(Cl)c(S(=O)(=O)N2CCOCC2)c1	1.45
COc1ccc(C)cc1Nc1nc(C)nc2c1oc1ccccc12	1.33
Cc1nn(Cc2ccccc2)c(C)c1CNC(=O)c1ccc(F)c(S(=O)(=O)N2CCOCC2)c1	27.9

Value lookup for inhibition; key = CCOC(=O)c1csc(NC(=O)c2ccc(S(=O)(=O)N3CCCC3)cc2)n1
-3.23

---

# SYSTEM: Protein-arginine deiminase type-4 (Homo sapiens)
# PROTOCOL NOTES: protein arginine deiminase 4 enzyme blockade – biochemical, fluorescence polarization, 1536-well format, primary screen (AID 485272);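 also: 0% = PAD4 with RCA probe and DMSO and 100% = probe without PAD4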
# EXPERIMENTAL PARAMETERS: recombinant PAD4, RCA probe fluorescence polarization; at 6.36 µM
The whole screen tested about 330,000 compounds, of which about 1,300 (0.39%) were called active.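 Rule for the calls: active = percent inhibition above a cutoff equal to the mean of all tested compounds plus 3 SD (cut at about 15% in these data); inactive = the rest.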 The entries come from a sample that favours actives as a whole.
Hi! Could you answer with just one of these? y for active, n for inactive

Examples with answers:
COMPOUND	SYSTEM	CATEGORY
COc1ccc(CCNC(=S)NC(=O)/C=C/c2ccc(C)cc2)cc1OC	Protein-arginine deiminase type-4 (Homo sapiens)	n
CCCCCN(C(=O)CCC(=O)OCC(=O)NC1CCC(C)CC1)c1c(N)n(CCCC)c(=O)[nH]c1=O (stereo unspecified)	Protein-arginine deiminase type-4 (Homo sapiens)	n

Hi, do you know how O=C(NNC(=O)c1cccc(S(=O)(=O)Nc2ccc(Cl)cc2)c1)c1ccc(=O)[nH]c1 came out in this test?
n

Hi, do you know how Cc1nn(-c2ccccc2)c2c1C(c1ccc(F)cc1)C(C#N)=C(N)O2 (stereo unspecified) came out in this test?
n

Hi, do you know how CCOc1ccc(S(=O)(=O)N2CCCCC2)cc1NC(=O)CN1CCCC1c1cccs1 (stereo unspecified) came out in this test?
n

Hi, do you know how COc1ccc(C2NC(=S)NC3=C2CCc2ccccc23)cc1OC (stereo unspecified) came out in this test?
y
